Test system: Mycobacterium tuberculosis
assay_procedure: Cornell - Phenotypic assay to identify agents that inhibit growth of Mycobacterium tuberculosis
Assay type: functional
Set-up: scale not given: direction of the effect not stated beside the values
experimental_parameters: 10 mM as filed; unlikely as a test dose
Hit rate of the full screen: of about 53,000 compounds, about 900 (1.7%) showed an effect of 50% or more. The entries come from a sample that favours strong results as a whole.
value_kind: Percent Effect (%)
Dear colleague, please return just the value in %, with no unit written.

Reference set (5 entries):
[[record]]
molecule = "CC(=O)N1CCC(c2n[nH]cc2-c2ccnc(N)c2)C1 (configuration not stated)"
unit_string = "%"
test_result = -32.92

[[record]]
molecule = "CN1CCCC(c2cccc(-c3cccc(C(F)(F)F)c3)n2)C1 (configuration not stated)"
unit_string = "%"
test_result = 30.4

[[record]]
molecule = "c1cc(CN2CCCC2c2noc(C3CC3)n2)on1 (configuration not stated)"
unit_string = "%"
test_result = -61.35

[[record]]
molecule = "Cc1cc(CN2CCCC2c2noc(C3CC3)n2)c2ccccc2n1 (configuration not stated)"
unit_string = "%"
test_result = 12.61

[[record]]
molecule = "N#Cc1cc2c(nc1O)CCCCC2"
unit_string = "%"
test_result = -24.16


Please look up its Percent Effect: COc1ccccc1N1CCN(CC(=O)NC(C)c2ccco2)CC1 (configuration not stated)
25.38

Consider the molecule shown here: Cc1cc(F)ccc1N1CCC(N2C[C@@H](CN(C)C)[C@@H](CO)C2)CC1 What is its recorded Percent Effect?
20.05

Endpoint output: Percent Effect of CN1CCCC(c2nccnc2-c2cccc(C(F)(F)F)c2)C1 (configuration not stated) . Value?
32.41

Could you tell me which Percent Effect is on file for Cc1nc(C)n(CC2CCCN(c3ncnc4ccsc34)C2)n1 (configuration not stated) ?
51.96

Tell me the measured Percent Effect of OCCN1CCCC(c2cccc(-c3ccccc3F)n2)C1 (configuration not stated) , please.
-3.425

Recorded Percent Effect for CCC1(O)CCCN(c2nc(-c3ccccn3)nc3c2c(C)nn3C)C1 (configuration not stated) , please?
23.24

I would be grateful if you could share the reported Percent Effect for CS(=O)(=O)N1CCCC(c2cccc(-c3ccccc3F)n2)C1 (configuration not stated) .
29.33
